Ref: paper PMC11302729

- target.under.test: Hsp90α (Homo sapiens)
- Construct: expression strains containing GST-Hsp90 N(9-236) plasmid (Addgene: 22481)
- assay.details: Hsp90 fluorescence polarization assay (displacement of FITC-labeled geldanamycin)
- conditions: compound concentration that decreases geldanamycin binding by 50%
recorded.endpoint: IC50 (µM)
Provide only the numeric value, understood in µM.

// below: answered molecules
[
  {
    "input.smiles": "COc1ccc(-c2c(C(F)(F)F)n[nH]c2-c2ccc(OC)cc2O)cc1",
    "unit.label": "µM",
    "IC50": 0.838
  },
  {
    "input.smiles": "Oc1ccc(-c2n[nH]c(C(F)(F)F)c2-c2ccc(Cl)cc2)c(O)c1",
    "unit.label": "µM",
    "IC50": 0.496
  },
  {
    "input.smiles": "COc1ccc(-c2[nH]nc(C(F)(F)F)c2-c2ccc(Cl)cc2)c(O)c1",
    "unit.label": "µM",
    "IC50": 0.798
  }
]

Next:
Req: Need IC50, item `COc1ccc(-c2c(C(F)(F)F)n[nH]c2-c2ccc(O)cc2O)cc1`
Resp: 0.574

====

- target.under.test: E. coli EnvZ (Escherichia coli)
- Construct: Cytoplasmic domains from S. aureus PhoR and E. coli EnvZ; His6; made in house; host or cells: E. coli RIL
- Sequence (P0AEJ4 180-450): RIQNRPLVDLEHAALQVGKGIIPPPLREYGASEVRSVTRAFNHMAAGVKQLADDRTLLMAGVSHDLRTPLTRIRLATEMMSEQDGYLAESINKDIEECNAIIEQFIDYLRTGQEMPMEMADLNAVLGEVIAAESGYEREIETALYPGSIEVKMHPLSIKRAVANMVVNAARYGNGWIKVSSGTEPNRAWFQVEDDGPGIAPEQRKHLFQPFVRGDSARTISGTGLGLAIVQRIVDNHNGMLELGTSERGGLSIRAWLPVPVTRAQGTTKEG
- assay.details: HK autophosphorylation inhibition, EnvZ
- Type: biochemical
- conditions: ± SD, n = 2; 10 mM ATP
Reported pIC50 values for the following compounds.
Expect pIC50 as a plain number equal to -log10 of the molar concentration.

[
  {
    "compound": "COc1ccc(-c2[nH]nc(C(F)(F)F)c2-c2ccc(Cl)cc2)c(O)c1 [DPP-6]",
    "pIC50": 4.01
  }
]

Req: GET /values?readout=pIC50&item= Oc1ccc(-c2n[nH]c(C(F)(F)F)c2-c2ccc(Cl)cc2)c(O)c1 [DPP-5]
Resp: 3.93

Req: Query (compound): COc1ccc(-c2c(C(F)(F)F)n[nH]c2-c2ccc(O)cc2O)cc1 [DPP-12] ; field requested: pIC50
Resp: 3.37

Req: Entry COc1ccc(-c2c(C(F)(F)F)n[nH]c2-c2ccc(OC)cc2O)cc1 [DPP-13] has what pIC50?
Resp: 3.76

====

Catalogue of compounds with associated MIC
- Test system: Staphylococcus aureus str. Newman
- assay.details: Minimal inhibitory concentration (microdilution) against S. aureus
- Format: cell-based
- conditions: Table ST3, value in parentheses
Kindly answer with a numeric value in µM, unit omitted.

Example entries and their recorded answers appear below.
[
  {
    "compound": "COc1ccccc1-c1c(C(F)(F)F)n[nH]c1-c1ccc(O)cc1O [DPP-16]",
    "unit.label": "µM",
    "measured.value": 71.43
  },
  {
    "compound": "COc1ccc(-c2[nH]nc(C)c2-c2ccc(Cl)cc2)c(O)c1 [DPP-10]",
    "unit.label": "µM",
    "measured.value": 79.37
  },
  {
    "compound": "COc1ccc(-c2c(C(F)(F)F)n[nH]c2-c2ccc(OC)cc2O)cc1 [DPP-13]",
    "unit.label": "µM",
    "measured.value": 34.34
  }
]

Please find the next compound below.
Req: What is its MIC for Staphylococcus aureus str. Newman? Entry: CCOc1ccc(-c2[nH]nc(C(F)(F)F)c2-c2ccc(Cl)cc2)c(O)c1 [DPP-7]
Resp: 8.21
